Test system: CCRF-HSB2
Assay: selective drug sensitivity score (sDSS, relative to normal bone marrow) (sDSS (score)); higher = more potent and effective on the cell line relative to normal bone marrow cells;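 note: ALL cell lines in 384-well plates, five doses spanning 10,000-fold, each plate scaled between vehicle and 100 µmol/L benzalkonium chloride controls, sDSS an adapted area-under-curve metric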
Details: 72 h
Entries and their selective drug sensitivity score values follow.
Hey, just send me the number, nothing else.

Recorded results for 2 compounds are shown here.
# COMPOUND, selective drug sensitivity score
rows = [
    ("CC(C)(C)c1cc(NC(=O)Nc2ccc(-c3cn4c(n3)sc3cc(OCCN5CCOCC5)ccc34)cc2)no1 [Quizartinib] (top concentration 1000 nM)", -0.12),
    ("Cc1cccc(CC(=O)N2CCc3c2ccc(-c2cn(C)c4ncnc(N)c24)c3F)n1 (top concentration 2500 nM)", 2.82),
]

Now consider a different compound.
Form field selective drug sensitivity score, entry CC(C)(C)NC(=O)[C@H]1CC[C@H]2[C@@H]3CC[C@H]4NC(=O)C=C[C@]4(C)[C@H]3CC[C@]12C [Finasteride] (top concentration 10000 nM) : -0.52

====

Test system: PF-382
Experiment: selective drug sensitivity score (sDSS, relative to normal bone marrow) (sDSS (score)); higher = more potent and effective on the cell line relative to normal bone marrow cells
Conditions: 72 h
Entries and their selective drug sensitivity score values follow.
Hey, just send me the number, nothing else.

# COMPOUND, SYSTEM, ASSAY RESULT
data = [
    ("CNC(=O)c1ccccc1Nc1cc(Nc2ccc(N3CCOCC3)cc2OC)ncc1C(F)(F)F [VS-4718] (top concentration 10000 nM)", "PF-382", -0.3),
    ("CC(=O)N(O)CCCCCNC(=O)CCC(=O)N(O)CCCCCNC(=O)CCC(=O)N(O)CCCCCN [Deferoxamine] (top concentration 10000 nM)", "PF-382", 4.66),
    ("C=CC(=O)Nc1cccc(Nc2nc(Nc3ccc(OCCOC)cc3)ncc2F)c1 [Spebrutinib] (top concentration 1000 nM)", "PF-382", -0.16),
]

Form field selective drug sensitivity score, entry Cc1[nH]c2ccccc2c1CCNCc1ccc(/C=C/C(=O)NO)cc1 [Panobinostat] (top concentration 1000 nM) : 4.34

Form field selective drug sensitivity score, entry CCNCCS(=O)(=O)NC[C@@]1(c2ccccc2)SC(NC(=O)C(C)(C)C)=NN1C(=O)C(C)(C)C [Litronesib] (top concentration 1000 nM) : 13.7

Form field selective drug sensitivity score, entry Cc1ccc(Nc2nccc(N(C)c3ccc4c(C)n(C)nc4c3)n2)cc1S(N)(=O)=O [Pazopanib] (top concentration 10000 nM) : 1.74

====

System: MOLT-16
Assay: selective drug sensitivity score (sDSS, relative to normal bone marrow) (sDSS (score)); higher = more potent and effective on the cell line relative to normal bone marrow cells
Conditions: 72 h
Label 0.0 if selective drug sensitivity score falls below 0.6; label 1.0 in every other case.

# MOLECULE, ASSIGNED LABEL
rows = [
    ("O=c1sn(-c2cccc3ccccc23)c(=O)n1Cc1ccccc1 [Tideglusib] (top concentration 3000 nM)", 0.0),
    ("CN(C)C(=O)c1cc2cnc(Nc3ccc(N4CCNCC4)cn3)nc2n1C1CCCC1 [Ribociclib] (top concentration 10000 nM)", 1.0),
    ("Cc1cccc(-c2[nH]c(CNc3ccccc3F)nc2-c2ccc3ncnn3c2)n1 [Vactosertib (TEW-7197)] (top concentration 2500 nM)", 1.0),
    ("Cc1[nH]c2ccccc2c1CCNCc1ccc(/C=C/C(=O)NO)cc1 [Panobinostat] (top concentration 1000 nM)", 1.0),
    ("O=C(c1ccc(F)c(F)c1Nc1ccc(I)cc1F)N1CC(O)([C@@H]2CCCCN2)C1 [Cobimetinib] (top concentration 1000 nM)", 0.0),
]

Next:
Inquiry: Reported selective drug sensitivity score reaches at least 0.6 for CN(C)CC#Cc1ccc(OCCCc2sc(N3CCc4cccc(C(=O)Nc5nc6ccccc6s5)c4C3)nc2C(=O)O)c(F)c1 (top concentration 10000 nM) ?
Reply text: 0.0

====

Tested on: COG-LL-317
Test: selective drug sensitivity score (sDSS, relative to normal bone marrow) (sDSS (score)); higher = more potent and effective on the cell line relative to normal bone marrow cells
Details: 72 h
MEASURED METRIC: selective drug sensitivity score

Form field selective drug sensitivity score, entry CC(C)C[C@@H](C(=O)N[C@H](C(=O)OC1CCCC1)c1ccccc1)[C@H](O)C(=O)NO [Tosedostat] (top concentration 10000 nM) : 14.9

Form field selective drug sensitivity score, entry CN(C)C(=O)c1cc2cnc(Nc3ccc(N4CCNCC4)cn3)nc2n1C1CCCC1 [Ribociclib] (top concentration 10000 nM) : 0.38

Form field selective drug sensitivity score, entry Cn1ncnc1[C@H]1c2n[nH]c(=O)c3cc(F)cc(c23)N[C@@H]1c1ccc(F)cc1 [Talazoparib] (top concentration 1000 nM) : 19.7

Form field selective drug sensitivity score, entry O=C(/C=C\n1cnc(-c2cc(C(F)(F)F)cc(C(F)(F)F)c2)n1)NNc1ccccn1 [Verdinexor] (top concentration 1000 nM) : 12.5

Form field selective drug sensitivity score, entry Cc1ccc(C(=O)Nc2ccc(CN3CCN(C)CC3)c(C(F)(F)F)c2)cc1C#Cc1cnc2cccnn12 [Ponatinib] (top concentration 1000 nM) : -1.98

Form field selective drug sensitivity score, entry CO[C@@H](C(=O)N1Cc2[nH]nc(NC(=O)c3ccc(N4CCN(C)CC4)cc3)c2C1)c1ccccc1 [Danusertib] (top concentration 10000 nM) : 19.4

====

Test system: KOPN-8
Assay: selective drug sensitivity score (sDSS, relative to normal bone marrow) (sDSS (score)); higher = more potent and effective on the cell line relative to normal bone marrow cells
Details: 72 h
MEASURED METRIC: selective drug sensitivity score
Hey, just send me the number, nothing else.

Recorded results for 5 compounds are shown here.
# COMPOUND, selective drug sensitivity score
data = [
    ("COc1ccc(-c2ccc3ncc4c(c3c2)n(-c2ccc(N3CCNCC3)c(C(F)(F)F)c2)c(=O)n4C)cn1 [NVP-BGT226] (top concentration 1000 nM)", 9.52),
    ("Cc1cc(Nc2cc(CN3CCOCC3)c3nc(C)c(Cc4ccc(Cl)cc4F)n3n2)n[nH]1 [Gandotinib] (top concentration 10000 nM)", 8.28),
    ("O=C(CCCCCCC(=O)Nc1ccccc1)NO [Vorinostat] (top concentration 10000 nM)", 13.4),
    ("Cn1cc(-c2cnn3c(N)c(Br)c([C@@H]4CCCNC4)nc23)cn1 [MK-8776] (top concentration 2500 nM)", -0.46),
    ("COc1ncc(-c2ccc3nccc(-c4ccnnc4)c3c2)cc1NS(=O)(=O)c1ccc(F)cc1F [Omipalisib] (top concentration 1000 nM)", 15.1),
]

Form field selective drug sensitivity score, entry Cn1cc(C2=C(c3cn(C4CCN(Cc5ccccn5)CC4)c4ccccc34)C(=O)NC2=O)c2ccccc21 [Enzastaurin] (top concentration 10000 nM) : 2.46

====

Tested on: JURKAT
Test: selective drug sensitivity score (sDSS, relative to normal bone marrow) (sDSS (score)); higher = more potent and effective on the cell line relative to normal bone marrow cells
Details: 72 h
Entries and their selective drug sensitivity score values follow.

# COMPOUND, ASSAY RESULT
records = [
    ("O=C(O)c1ccc(-c2c[nH]c3ncc(-c4ccccc4)cc23)cc1C1CCCC1 (top concentration 10000 nM)", 0.16),
    ("Cc1cc(Nc2cc(N3CCN(C)CC3)nc(/C=C/c3ccccc3)n2)n[nH]1 [ENMD-2076] (top concentration 10000 nM)", 3.64),
]

Observed selective drug sensitivity score on JURKAT, entry COc1cc2c(cc1OC(C)C)[C@H](c1ccc(Cl)cc1)N(c1ccc(N(C)C[C@H]3CC[C@H](N4CCN(C)C(=O)C4)CC3)cc1)C(=O)C2 [NVP-CGM097] (top concentration 25000 nM) , equals -4.44

Observed selective drug sensitivity score on JURKAT, entry CC1=C(/C=C/C(C)=C/C=C/C(C)=C/C(=O)O)C(C)(C)CCC1 [Tretinoin] (top concentration 10000 nM) , equals -2.4

Observed selective drug sensitivity score on JURKAT, entry CCc1cncnc1N1CCN(Cc2nc3cc(C(F)(F)F)ccc3[nH]2)CC1 (top concentration 10000 nM) , equals 7.36

Observed selective drug sensitivity score on JURKAT, entry C1=N/C2=N/c3ccc(OCCN4CCCC4)c(c3)COC/C=C/COCc3cccc(c3)C(=C1)N2 [Pacritinib] (top concentration 10000 nM) , equals -8

====

Test system: COG-LL-402h
Test: selective drug sensitivity score (sDSS, relative to normal bone marrow) (sDSS (score)); higher = more potent and effective on the cell line relative to normal bone marrow cells
Details: 72 h
Entries and their selective drug sensitivity score values follow.
Hey, just send me the number, nothing else.

Recorded results for 3 compounds are shown here.
# COMPOUND, ASSAY RESULT
records = [
    ("CCNCCS(=O)(=O)NC[C@@]1(c2ccccc2)SC(NC(=O)C(C)(C)C)=NN1C(=O)C(C)(C)C [Litronesib] (top concentration 1000 nM)", 18),
    ("CC(=O)OC[C@H]1O[C@@H]([S-])[C@H](OC(C)=O)[C@@H](OC(C)=O)[C@@H]1OC(C)=O.CCP(CC)CC.[Au+] [Auranofin] (top concentration 2500 nM)", 7.84),
    ("O=C(c1cccc(Cl)c1F)N1CCN(Cc2cccc(Nc3nccs3)n2)CC1 [MK-8745] (top concentration 10000 nM)", 14.1),
]

Now consider a different compound.
Form field selective drug sensitivity score, entry O=C(O)c1ccc(O)c2ncccc12 [IOX-1] (top concentration 100000 nM) : 3.64
